biological target: T1, full-length human SIRPαV1 (NP_542970.1) on cells (human, UniProt P78324 31-504); assay: flow cytometry, Expi-CHO cells
T1 construct: one molecule for CHO-K1 and Expi-CHO transfectants (NP_542970.1) and for endogenous V1 on U-937 cells and on CD14+ monocytes of V1/V1 donors; also called CHO-hSIRPαV1; αV1 WT
T1 sequence (P78324 31-504): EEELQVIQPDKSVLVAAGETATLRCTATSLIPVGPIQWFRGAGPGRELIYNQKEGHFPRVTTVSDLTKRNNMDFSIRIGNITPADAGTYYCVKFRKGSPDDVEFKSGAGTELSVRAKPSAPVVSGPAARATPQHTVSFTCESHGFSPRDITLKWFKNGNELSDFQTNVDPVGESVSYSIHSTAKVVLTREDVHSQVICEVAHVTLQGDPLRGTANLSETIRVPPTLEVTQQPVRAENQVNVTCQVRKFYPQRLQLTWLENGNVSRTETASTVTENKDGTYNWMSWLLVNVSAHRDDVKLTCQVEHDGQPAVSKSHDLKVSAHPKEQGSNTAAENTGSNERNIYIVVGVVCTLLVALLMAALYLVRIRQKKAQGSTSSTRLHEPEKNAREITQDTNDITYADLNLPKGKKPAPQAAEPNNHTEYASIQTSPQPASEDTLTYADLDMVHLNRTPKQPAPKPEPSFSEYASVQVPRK
Listed next: entries and their corresponding EC50.
The figure you give is taken to be in nM; do not add the unit.

Examples from the recorded data:
| BINDER | UNIT | EC50 |
| --- | --- | --- |
| Antibody B (antibody, human IgG1, kappa, L234A L235A, V domains shown) VH: QVQLVQSGAEVKKPGASVKVSCKASGYTFTGNYMHWVRQAPGQGLEWMGWINPNSGGTNYAQKFQGRVTMTRDTSISTAYMELSRLRSDDTAVYYCVSGSGWYENYYYYGMDVWGQGTTVTVSS VL: DIQMTQSPSSVSASVGDRVTITCRASQGISSWLAWYQQKPGKAPKLLIYAESSLQSGVPSRFSGSGSGTDFTLTISSLQPEDFATYYCQQANSFPLTFGGGTKVEIKR | nM | 3.8 |
| Antibody E22 (antibody, human IgG1, kappa, L234A L235A, V domains shown) VH: QVQLQESGPGLVKPSETLSLTCTVSGGSIRDYYWSWIRQPPGKGLEWIGFIYYNGRTFYQSSLKSRVTISLDTSKNQFSLKMTSVTAADTAVYYCARVRAYSGIGLDGTDVWGQGTTVTVSS VL: DIVMTQSPLSLPVTPGEPASISCRSSQSLLYSTGYTYLDWYLQRPGQSPQLLIYGGSSRASGVPDRFSGSGSGTDFTLKISRVEAEDVGVFYCGQALQTPLTFGQGTKVEIKR | nM | 0.8 |
| Antibody D (antibody, human IgG1, kappa, L234A L235A, V domains shown) VH: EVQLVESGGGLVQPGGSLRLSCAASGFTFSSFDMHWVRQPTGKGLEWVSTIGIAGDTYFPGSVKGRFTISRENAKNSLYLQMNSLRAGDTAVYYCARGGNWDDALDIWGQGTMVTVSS VL: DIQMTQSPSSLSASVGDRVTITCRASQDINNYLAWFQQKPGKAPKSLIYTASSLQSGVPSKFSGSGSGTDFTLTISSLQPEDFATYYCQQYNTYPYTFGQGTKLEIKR | nM | 0.3 |
| Anti-SIRPα antibody KWAR23 (antibody, V domains shown) VH: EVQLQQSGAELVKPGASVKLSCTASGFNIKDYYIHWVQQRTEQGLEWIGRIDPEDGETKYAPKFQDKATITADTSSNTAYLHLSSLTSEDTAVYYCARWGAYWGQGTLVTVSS VL: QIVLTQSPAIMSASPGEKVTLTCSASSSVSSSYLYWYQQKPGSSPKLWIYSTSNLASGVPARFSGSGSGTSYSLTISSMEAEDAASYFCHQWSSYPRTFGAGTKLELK | nM | 0.3 |

Next:
Return reported EC50; argument: Antibody C (antibody, human IgG1, kappa, L234A L235A, V domains shown) VH: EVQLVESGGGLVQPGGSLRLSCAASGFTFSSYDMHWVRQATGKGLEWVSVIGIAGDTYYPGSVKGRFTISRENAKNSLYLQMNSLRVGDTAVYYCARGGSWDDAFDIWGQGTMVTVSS VL: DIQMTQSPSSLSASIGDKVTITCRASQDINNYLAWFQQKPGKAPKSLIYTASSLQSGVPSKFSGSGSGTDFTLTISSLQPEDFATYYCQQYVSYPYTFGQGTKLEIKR
0.3
